Every entry's value here was drawn from patent US20130136743A1.

targetEntity: T1, AMHRII receptor expressed on cells (cov434-AMHRII, Asc 1, META 2815) (human, UniProt Q16671 18-573)
T1 sequence (looked up): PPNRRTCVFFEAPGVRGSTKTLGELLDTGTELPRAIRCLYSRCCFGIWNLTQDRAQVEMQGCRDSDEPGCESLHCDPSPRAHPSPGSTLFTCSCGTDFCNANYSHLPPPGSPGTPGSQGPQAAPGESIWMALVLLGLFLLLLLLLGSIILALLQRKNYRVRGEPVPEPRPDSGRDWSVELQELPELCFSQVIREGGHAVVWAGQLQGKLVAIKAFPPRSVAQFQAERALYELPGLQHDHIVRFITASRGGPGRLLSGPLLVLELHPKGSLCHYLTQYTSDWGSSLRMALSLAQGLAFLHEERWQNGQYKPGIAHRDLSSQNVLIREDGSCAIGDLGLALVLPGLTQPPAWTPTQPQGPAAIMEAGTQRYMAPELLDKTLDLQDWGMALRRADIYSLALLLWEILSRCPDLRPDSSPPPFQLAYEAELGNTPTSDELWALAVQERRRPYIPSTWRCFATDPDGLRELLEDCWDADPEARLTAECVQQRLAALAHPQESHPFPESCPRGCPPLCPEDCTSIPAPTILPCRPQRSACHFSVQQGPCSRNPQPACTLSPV
measurementProtocol: cell-based or functional assay
reportedEndpoint: % of lysis of ASC1 cells (ADCC with NK cells, LDH release) at 500 ng/ml antibody

Recorded results for 2 binders are shown here.
# binder, assayValue
measured = [
    ("mutated humanized 12G4 antibody 3C-23K produced in YB2/0 (antibody, human IgG1, kappa, V domains shown, Chains without leader; also called 3C_23K YB2/0; 3C-23K-YB2/0) VH: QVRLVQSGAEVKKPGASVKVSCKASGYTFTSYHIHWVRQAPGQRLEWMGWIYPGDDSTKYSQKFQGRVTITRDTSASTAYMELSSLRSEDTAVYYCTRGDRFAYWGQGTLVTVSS VL: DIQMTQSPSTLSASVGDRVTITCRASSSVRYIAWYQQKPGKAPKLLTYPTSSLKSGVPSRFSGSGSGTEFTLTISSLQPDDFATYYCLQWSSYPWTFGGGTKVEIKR", "79%"),
    ("unmutated humanized 12G4 monoclonal antibody (antibody, human IgG1, kappa, V domains shown, Variable regions without leader joined to the constant regions; also called huLFB112; 632 07 107 Anti AMHRII hum 1st) VH: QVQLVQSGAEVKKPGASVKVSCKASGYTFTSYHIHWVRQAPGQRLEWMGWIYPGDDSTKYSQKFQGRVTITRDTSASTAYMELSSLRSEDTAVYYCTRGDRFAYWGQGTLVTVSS VL: DIQMTQSPSTLSASVGDRVTITCRASSSVRYIAWYQQKPGKAPKLLIYSTSSLESGVPSRFSGSGSGTEFTLTISSLQPDDFATYYCLQWSSYPWTFGGGTKVEIKR", "50%"),
]

Consider now this further binder.
Item mutated humanized 12G4 antibody 6B-78 produced in YB2/0 (antibody, human IgG1, kappa, V domains shown, Chains without leader; Mutation VL-E184K; also called 6B_78 YB2/0; R901 6B78) VH: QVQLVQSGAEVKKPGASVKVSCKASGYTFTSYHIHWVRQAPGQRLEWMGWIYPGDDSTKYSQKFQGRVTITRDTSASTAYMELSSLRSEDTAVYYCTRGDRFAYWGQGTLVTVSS VL: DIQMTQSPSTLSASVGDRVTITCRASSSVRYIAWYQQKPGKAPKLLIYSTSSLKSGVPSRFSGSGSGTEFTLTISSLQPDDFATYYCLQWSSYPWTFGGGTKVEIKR has what recorded % of lysis of ASC1 cells (ADCC with NK cells, LDH release) at 500 ng/ml antibody? 48%
